Hi there, I'd appreciate the recorded HFF Viability (%) for every entry that follows.
system: human foreskin fibroblasts (HFF); assay: Cytotoxicity in non-infected HFF by alamarBlue assay; type: cell-based; conditions: 2.5 µM, control 0.25% DMSO = 100%, six replicates
Give bare numbers, in %.

Go through the list and state HFF Viability (%) for each entry.
1. CC(C)(C)c1ccc(C[S+]2[Ru-]3[S+](Cc4ccc(C(C)(C)C)cc4)[Ru-]2[S+]3c2ccccc2Cn2cc(Cn3ccc(=O)[nH]c3=O)nn2)cc1.Cc1ccc(C(C)C)cc1.Cc1ccc(C(C)C)cc1.[Cl-] (stereo not drawn) [Compound 19]
2. CC(C)(C)c1ccc(C[S+]2[Ru-]3[S+](Cc4ccc(C(C)(C)C)cc4)[Ru-]2[S+]3c2ccc(N=[N+]=[N-])cc2)cc1.Cc1ccc(C(C)C)cc1.Cc1ccc(C(C)C)cc1.[Cl-] (stereo not drawn) [Compound 10]
3. C#CCOC(=O)Cc1ccc([S+]2[Ru-]3[S+](Cc4ccc(C(C)(C)C)cc4)[Ru-]2[S+]3Cc2ccc(C(C)(C)C)cc2)cc1.Cc1ccc(C(C)C)cc1.Cc1ccc(C(C)C)cc1.[Cl-] (stereo not drawn) [Compound 7]
4. CC(C)(C)c1ccc(C[S]2[Ru]3[S](Cc4ccc(C(C)(C)C)cc4)[Ru+]2[S]3c2ccc(-n3cc(Cn4ccc(=O)[nH]c4=O)nn3)cc2)cc1.Cc1ccc(C(C)C)cc1.Cc1ccc(C(C)C)cc1.[Cl-] [Compound 23]

Result:
50
38
51
64

State the recorded HFF Viability (%) for every item in the following list.
1. C#Cc1ccc(C(=O)Nc2ccc([S+]3[Ru-]4[S+](Cc5ccc(C(C)(C)C)cc5)[Ru-]3[S+]4Cc3ccc(C(C)(C)C)cc3)cc2)cc1.Cc1ccc(C(C)C)cc1.Cc1ccc(C(C)C)cc1.[Cl-] (stereo not drawn) [Compound 6]
2. C#CCCCC(=O)Nc1ccc([S+]2[Ru-]3[S+](Cc4ccc(C(C)(C)C)cc4)[Ru-]2[S+]3Cc2ccc(C(C)(C)C)cc2)cc1.Cc1ccc(C(C)C)cc1.Cc1ccc(C(C)C)cc1.[Cl-] (stereo not drawn) [Compound 5]
3. Cc1ccc(C(C)C)cc1.Cc1ccc(C(C)C)cc1.Cc1cn(Cc2cn(-c3ccc([S]4[Ru]5[S](Cc6ccc(C(C)(C)C)cc6)[Ru+]4[S]5Cc4ccc(C(C)(C)C)cc4)cc3)nn2)c(=O)[nH]c1=O.[Cl-] [Compound 24]
4. CC(C)(C)c1ccc(C[S]2[Ru]3[S](Cc4ccc(C(C)(C)C)cc4)[Ru+]2[S]3c2ccc(CC(=O)OCc3cn(Cc4cc(=O)[nH]c(=O)[nH]4)nn3)cc2)cc1.Cc1ccc(C(C)C)cc1.Cc1ccc(C(C)C)cc1.[Cl-] [Compound 30]

Result:
[17, 34, 85, 97]

Problem: Name the recorded HFF Viability (%) for CC(C)(C)c1ccc(C[S+]2[Ru-]3[S+](Cc4ccc(C(C)(C)C)cc4)[Ru-]2[S+]3c2ccccc2CN=[N+]=[N-])cc1.Cc1ccc(C(C)C)cc1.Cc1ccc(C(C)C)cc1.[Cl-] (stereo not drawn) [Compound 9] .
Result: 11

* * *

Can you tell me HFF Viability (%) for the items I'm about to list?
test system: human foreskin fibroblasts (HFF); experiment: Cytotoxicity in non-infected HFF by alamarBlue assay; assay type: cell-based; details: 1 µM, non-infected HFF, 72 h, relative to DMSO control, triplicate
One number for each entry, in %.

Record HFF Viability (%) per entry; entries follow.
1. Cc1ccc(C(C)C)cc1.Cc1ccc(C(C)C)cc1.Cc1cn(Cc2cn(-c3ccc([S]4[Ru]5[S](Cc6ccc(C(C)(C)C)cc6)[Ru+]4[S]5Cc4ccc(C(C)(C)C)cc4)cc3)nn2)c(=O)[nH]c1=O.[Cl-] [Compound 24]
2. CC(C)(C)c1ccc(C[S]2[Ru]3[S](Cc4ccc(C(C)(C)C)cc4)[Ru+]2[S]3c2ccccc2Cn2cc(-c3ccccc3)nn2)cc1.Cc1ccc(C(C)C)cc1.Cc1ccc(C(C)C)cc1.[Cl-] [Compound 34]

Result:
96
70
